Test: Intravenous and buccal pharmacokinetic study in the minipig
Assay type: in vivo
Settings: male, Göttingen, in vivo, 0.04 mg/kg, buccal 0.040 mg/kg, mean, read-out: Plasma concentration Day 5 Hour 0.75, Mean
Structures can show the parent of a compound that is named as a salt.
property_label: concentration at 0.75 h (µg/mL)

• CCCN1CCC[C@@H]2Cc3c(ccc(O)c3O)C[C@H]21 [compound 10, hydrobromide] = 0.0124

###

Assay: Intravenous and buccal pharmacokinetic study in the minipig
Assay type: in vivo
Settings: male, Göttingen, in vivo, iv, 0.0025 mg/kg, IV 0.0025 mg/kg, mean, read-out: Plasma concentration Day 1 Hour 0.08, Mean
Where a name gives a salt, the structure may show the parent alone.
property_label: concentration at 0.08 h (ng/mL)

- CCCN1CCC[C@@H]2Cc3c(ccc(O)c3O)C[C@H]21 [compound 10, hydrobromide]: 1.62

###

Assay: Intravenous and buccal pharmacokinetic study in the minipig
Assay type: in vivo
Settings: male, Göttingen, in vivo, iv, 0.0025 mg/kg, IV 0.0025 mg/kg, mean, read-out: Plasma concentration Day 1 Hour 1, Mean
Structures can show the parent of a compound that is named as a salt.
property_label: concentration at 1 h (ng/mL)

- CCCN1CCC[C@@H]2Cc3c(ccc(O)c3O)C[C@H]21 [compound 10, hydrobromide]: 0.421

###

Assay: Intravenous and buccal pharmacokinetic study in the minipig
Format: in vivo
Conditions: male, Göttingen, in vivo, iv, 0.0025 mg/kg, IV 0.0025 mg/kg, individual animals 1-3, read-out: Plasma concentration Day 1 Hour 0.17
Counter-ions that a name gives are not always drawn.
property_label: concentration at 0.17 h (ng/mL)

- CCCN1CCC[C@@H]2Cc3c(ccc(O)c3O)C[C@H]21 [compound 10, hydrobromide]: 0.834

###

Assay: Intravenous and buccal pharmacokinetic study in the minipig
Type: in vivo
Settings: male, Göttingen, in vivo, 0.04 mg/kg, buccal 0.040 mg/kg, mean, read-out: Plasma concentration Day 1 Hour 24, Mean
Counter-ions that a name gives are not always drawn.
property_label: concentration at 24 h

• CCCN1CCC[C@@H]2Cc3c(ccc(O)c3O)C[C@H]21 [compound 10, hydrobromide] = 0.119 ng/mL

###

Assay: Intravenous and buccal pharmacokinetic study in the minipig
Type: in vivo
Details: male, Göttingen, in vivo, 0.01 mg/kg, buccal 0.010 mg/kg, read-out: mean apparent terminal half-life (converted)
Where a name gives a salt, the structure may show the parent alone.
property_label: half-life (h)

- CCCN1CCC[C@@H]2Cc3c(ccc(O)c3O)C[C@H]21 [compound 10, hydrobromide]: 5.1

###

Assay: Intravenous and buccal pharmacokinetic study in the minipig
Type: in vivo
Details: male, Göttingen, in vivo, buccal, range in individual animals, read-out: apparent terminal elimination half-life
Where a name gives a salt, the structure may show the parent alone.
property_label: half-life

* CCCN1CCC[C@@H]2Cc3c(ccc(O)c3O)C[C@H]21 [compound 10, hydrobromide] | 3.1 to 5.6 h

###

Test: Intravenous and buccal pharmacokinetic study in the minipig
Type: in vivo
Settings: male, Göttingen, in vivo, iv, 0.0025 mg/kg, IV 0.0025 mg/kg, individual animals 1-3, read-out: Plasma concentration Day 1 Hour 12
Structures can show the parent of a compound that is named as a salt.
property_label: concentration at 12 h (ng/mL)

• CCCN1CCC[C@@H]2Cc3c(ccc(O)c3O)C[C@H]21 [compound 10, hydrobromide] = 0.017

###

Test: Intravenous and buccal pharmacokinetic study in the minipig
Assay type: in vivo
Details: male, Göttingen, in vivo, iv, 0.0025 mg/kg, IV 0.0025 mg/kg, individual animals 1-3, read-out: Plasma concentration Day 1 Hour 6
Where a name gives a salt, the structure may show the parent alone.
property_label: concentration at 6 h (ng/mL)

* CCCN1CCC[C@@H]2Cc3c(ccc(O)c3O)C[C@H]21 [compound 10, hydrobromide] | 0.0476

###

Experiment: Intravenous and buccal pharmacokinetic study in the minipig
Format: in vivo
Conditions: male, Göttingen, in vivo, iv, 0.0025 mg/kg, IV 0.0025 mg/kg, mean, read-out: Plasma concentration Day 1 Hour 2, Mean
Structures can show the parent of a compound that is named as a salt.
property_label: concentration at 2 h (ng/mL)

* CCCN1CCC[C@@H]2Cc3c(ccc(O)c3O)C[C@H]21 [compound 10, hydrobromide] | 0.249

###

Experiment: Intravenous and buccal pharmacokinetic study in the minipig
Assay type: in vivo
Details: male, Göttingen, in vivo, 0.01 mg/kg, buccal 0.010 mg/kg, mean, read-out: Plasma concentration Day 3 Hour 0.25, Mean
Experimental: The test article was compound 10. […] The plasma concentrations of compound 10 were determined after solid phase extraction of the plasma samples followed by high performance liquid chromatography with tandem mass spectrometric detection (LC-MS/MS) using a sample volume of about 100 microL. […]
Structures can show the parent of a compound that is named as a salt.
property_label: concentration at 0.25 h (ng/mL)

- CCCN1CCC[C@@H]2Cc3c(ccc(O)c3O)C[C@H]21 [compound 10, hydrobromide]: 0.314

###

Assay: Intravenous and buccal pharmacokinetic study in the minipig
Assay type: in vivo
Details: male, Göttingen, in vivo, 0.01 mg/kg, buccal 0.010 mg/kg, mean, read-out: Plasma concentration Day 3 Hour 0.5, Mean
Counter-ions that a name gives are not always drawn.
property_label: concentration at 0.5 h (ng/mL)

* CCCN1CCC[C@@H]2Cc3c(ccc(O)c3O)C[C@H]21 [compound 10, hydrobromide] | 0.752

###

Target: human D2 receptor (Homo sapiens, UniProt P14416)
Construct: expressed in transfected cells; host or cells: CHO cells
Sequence (P14416 whole entry): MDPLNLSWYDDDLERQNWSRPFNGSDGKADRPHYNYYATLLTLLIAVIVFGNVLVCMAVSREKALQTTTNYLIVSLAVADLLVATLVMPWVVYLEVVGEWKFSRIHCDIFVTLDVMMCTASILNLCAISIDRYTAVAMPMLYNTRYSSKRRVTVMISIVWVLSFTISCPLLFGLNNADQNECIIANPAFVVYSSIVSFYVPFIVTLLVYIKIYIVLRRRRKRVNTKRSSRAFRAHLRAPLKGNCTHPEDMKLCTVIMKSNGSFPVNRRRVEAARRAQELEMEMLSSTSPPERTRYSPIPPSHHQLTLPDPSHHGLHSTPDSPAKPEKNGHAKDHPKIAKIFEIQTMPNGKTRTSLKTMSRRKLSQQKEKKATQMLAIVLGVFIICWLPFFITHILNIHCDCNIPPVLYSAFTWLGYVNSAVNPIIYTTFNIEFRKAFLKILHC
Experiment: D2 cAMP assay
Type: cell-based
Description: The ability of the compounds to either stimulate or inhibit the D2 receptor mediated inhibition of cAMP formation in CHO cells transfected with the human D2 receptor was measured as follows. Cells were seeded in 96 well plates at a concentration of 8000 cells/well 3 days prior to the experiment. […]
pEC50: −log10 of the molar value. Where a name gives a salt, the structure may show the parent alone.
property_label: pEC50

- CCCN1CCC[C@@H]2Cc3c(ccc(O)c3O)C[C@H]21 [compound 10, hydrobromide]: 9.96

###

Test: Intravenous and buccal pharmacokinetic study in the minipig
Format: in vivo
Details: male, Göttingen, in vivo, 0.01 mg/kg, buccal 0.010 mg/kg, mean, read-out: Plasma concentration Day 1 Hour 6, Mean
Counter-ions that a name gives are not always drawn.
property_label: concentration at 6 h (ng/mL)

- CCCN1CCC[C@@H]2Cc3c(ccc(O)c3O)C[C@H]21 [compound 10, hydrobromide]: 0.0623

###

Experiment: Intravenous and buccal pharmacokinetic study in the minipig
Assay type: in vivo
Conditions: male, Göttingen, in vivo, iv, 0.0025 mg/kg, IV 0.0025 mg/kg, individual animals 1-3, read-out: Plasma concentration Day 1 Hour 8
Where a name gives a salt, the structure may show the parent alone.
property_label: concentration at 8 h (ng/mL)

- CCCN1CCC[C@@H]2Cc3c(ccc(O)c3O)C[C@H]21 [compound 10, hydrobromide]: 0.0245

###

Test: Intravenous and buccal pharmacokinetic study in the minipig
Assay type: in vivo
Details: male, Göttingen, in vivo, 0.01 mg/kg, buccal 0.010 mg/kg, individual animals, below LLOQ 10 pg/mL, estimated, read-out: Plasma concentration Day 1 Hour 16
Experimental: The test article was compound 10. […] The plasma concentrations of compound 10 were determined after solid phase extraction of the plasma samples followed by high performance liquid chromatography with tandem mass spectrometric detection (LC-MS/MS) using a sample volume of about 100 microL. […]
Counter-ions that a name gives are not always drawn.
property_label: concentration at 16 h (pg/mL)

- CCCN1CCC[C@@H]2Cc3c(ccc(O)c3O)C[C@H]21 [compound 10, hydrobromide]: 6.91

###

Assay: Intravenous and buccal pharmacokinetic study in the minipig
Type: in vivo
Conditions: male, Göttingen, in vivo, 0.04 mg/kg, buccal 0.040 mg/kg, mean, read-out: Plasma concentration Day 1 Hour 4, Mean
Counter-ions that a name gives are not always drawn.
property_label: concentration at 4 h

- CCCN1CCC[C@@H]2Cc3c(ccc(O)c3O)C[C@H]21 [compound 10, hydrobromide]: 1.93 ng/mL

###

Assay: Intravenous and buccal pharmacokinetic study in the minipig
Type: in vivo
Conditions: male, Göttingen, in vivo, 0.04 mg/kg, buccal 0.040 mg/kg, mean, read-out: Plasma concentration Day 1 Hour 12, Mean
Structures can show the parent of a compound that is named as a salt.
property_label: concentration at 12 h (ng/mL)

* CCCN1CCC[C@@H]2Cc3c(ccc(O)c3O)C[C@H]21 [compound 10, hydrobromide] | 0.604

###

Experiment: Intravenous and buccal pharmacokinetic study in the minipig
Type: in vivo
Details: male, Göttingen, in vivo, iv, 0.0025 mg/kg, IV 0.0025 mg/kg, mean, read-out: Plasma concentration Day 1 Hour 0.25, Mean
Counter-ions that a name gives are not always drawn.
property_label: concentration at 0.25 h

- CCCN1CCC[C@@H]2Cc3c(ccc(O)c3O)C[C@H]21 [compound 10, hydrobromide]: 0.913 ng/mL
